MEASURED_ON: GORASP1, Q9BQQ3
Sequence (Q9BQQ3 1-208): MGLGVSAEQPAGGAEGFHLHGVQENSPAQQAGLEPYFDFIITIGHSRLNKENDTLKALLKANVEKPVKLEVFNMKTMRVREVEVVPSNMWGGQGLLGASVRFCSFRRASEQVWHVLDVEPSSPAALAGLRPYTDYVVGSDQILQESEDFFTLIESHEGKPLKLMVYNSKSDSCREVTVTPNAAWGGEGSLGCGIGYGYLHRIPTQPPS
ASSAY_REMARKS: holdup assay
Set-up: key: below the threshold = too weak to quantify, mostly under pKd 3.1 to 4
RUN_CONDITIONS: plain residues with an end cap or a label only (N-terminal biotin on a linker: ttds)
PARAMETER: pKd

Worked cases, pKd given:
{"BINDER": "DKDPHSETAL [TMIGD1, Q6UXZ0]", "RESULT": "below the threshold"}
{"BINDER": "NDPAWDETNL [ARHGEF7, Q14155;Q14155-1]", "RESULT": "below the threshold"}
{"BINDER": "PVRVCEETSL [OTULIN, Q96BN8]", "RESULT": 3.64}
{"BINDER": "FHPLGADSQV [SLC2A1, P11166]", "RESULT": "below the threshold"}
{"BINDER": "SSLQSLETSV [ATP2B4, P23634]", "RESULT": "below the threshold"}
{"BINDER": "PRVKPQRSKV [PPP1R13L, Q8WUF5]", "RESULT": "below the threshold"}
{"BINDER": "EVVHTPETSV [SLC16A3, O15427]", "RESULT": "below the threshold"}
{"BINDER": "RHTTSTETAV [HPV30-E6, P36809]", "RESULT": "below the threshold"}

Reported pKd ( RPLPRKVSQL [DOCK4, Q8N1I0] ) = 3.55
